Tested on: M. mycetomatis genome strain MM55
Assay: CLSI M38-A2 based in vitro susceptibility screening (XTT or resazurin), growth at fixed concentration
Assay type: cell-based, Madurella mycetomatis
Settings: Madurella mycetomatis, 25 uM, replicate A; read-out: Percentage survival at 25um, 25 um A
Classification field. Basis: activity at 25 µM. Definitions: lower bin (below 60%), middle bin (60% to below 90%), upper bin (90% or more)

Q: For Fc1ccc2c(/C=C/c3cccnc3)c[nH]c2c1 [MMV1578889] , which activity at 25 µM bin applies?
Result: middle bin

Q: For Cc1oncc1C(=O)Nc1ccc(C(F)(F)F)cc1 [MMV003291] , which activity at 25 µM bin applies?
Result: middle bin

Q: For Cc1c(CN(C)C(=O)/C=C/c2cnc3c(c2)C(C)(C)C(=O)N3)oc2ccccc12 [MMV1579788] , which activity at 25 µM bin applies?
Result: middle bin

Q: For N#Cc1cc([N+](=O)[O-])ccc1Oc1ccccc1Cl [MMV1580800] , which activity at 25 µM bin applies?
Result: lower bin

Q: For Cn1cc(NC(=O)c2cc(NC(=O)c3ccc(/C=C/c4cnc5ccccc5c4)cc3)cn2C)cc1C(=O)NCCN1CCOCC1 [MMV1634391] , which activity at 25 µM bin applies?
Result: middle bin

Q: For O=c1oc2ccc(Br)cc2cc1CSc1ncc[nH]1 [MMV1782105] , which activity at 25 µM bin applies?
Result: middle bin

Q: For N=c1n(CCN2CCCCC2)c2ccccc2n1CC(O)COc1ccc(Cl)cc1Cl (stereo not drawn) [MMV394033] , which activity at 25 µM bin applies?
Result: lower bin

Q: For C[C@H]1[C@@H](c2cccc(C(F)(F)F)c2)OC(=O)N1C(=O)NCc1cncc2ccccc12 [MMV1593533] , which activity at 25 µM bin applies?
Result: lower bin

Q: For [N-]=[N+]=N[C@H]1C[C@H](n2ccc(=O)[nH]c2=O)O[C@@H]1CO [MMV1593520] , which activity at 25 µM bin applies?
Result: upper bin

Q: For COc1ccc(CNC(=O)C(NS(=O)(=O)c2ccc3nc(C)sc3c2)C(C)C)cc1 (stereo not drawn) [MMV303733] , which activity at 25 µM bin applies?
Result: middle bin

Q: For COc1cc(C)c2c(Oc3cccc(C(F)(F)F)c3)c(OC)cc(NC(C)CCCN)c2n1 (stereo not drawn) [MMV000043, Tafenoquine, reference compound] , which activity at 25 µM bin applies?
Result: lower bin

Q: For Nc1nc(N)c2c(Sc3ccccc3)cccc2n1 [MMV021759] , which activity at 25 µM bin applies?
Result: middle bin

Q: For O=C(O)c1sccc1S(=O)(=O)n1ccc2cc(Br)ccc21 [MMV1580855] , which activity at 25 µM bin applies?
Result: upper bin

Q: For CCN(CC)CCn1c(=N)n(CC(O)COc2ccc(Cl)cc2Cl)c2ccccc21 (stereo not drawn) [MMV000725] , which activity at 25 µM bin applies?
Result: lower bin

Q: For COC(=O)Nc1nc2ccc(Sc3ccccc3)cc2[nH]1 [MMV003143, Fenbendazole] , which activity at 25 µM bin applies?
Result: lower bin

Q: For Nc1nnc(-c2ccc(Cl)cc2)s1 [MMV046261] , which activity at 25 µM bin applies?
Result: middle bin

Q: For O=C(Nc1ncc(Cc2cccc3ccccc23)s1)C1CCCCC1 [MMV1593532] , which activity at 25 µM bin applies?
Result: upper bin
